System: BaF3.EpoR cells expressing JAK2V617F with G935R mutation
Test: Cell growth in response to JAK2 inhibitors, G935R mutant
Assay type: cell-based, murine
Conditions: Mus musculus
Quantity: EC50

Item under review: Cc1cc(Nc2nc(N[C@@H](C)c3ncc(F)cn3)ncc2Cl)n[nH]1 . Reported EC50?
> 10 µM

# credit: patent US10155987B2
